Values from BigSolDB 2.1

- Assay Context: in acetone, 283.15 K
Reported Property: solubility (mole fraction)

## Task Look at this molecule and give its reported solubility (mole fraction). C1=Cc2ccccc2Nc2ccccc21
## Result 0.0178

---

- Assay Context: in 1,4-dioxane, 298.15 K
Reported Property: solubility (mole fraction)
The answer should be written as a number, with no unit following it.

## Task Look at this molecule and give its reported solubility (mole fraction). C1=Cc2ccccc2Nc2ccccc21
## Result 0.0392

---

- Assay Context: in methyl acetate, 288.15 K
Reported Property: solubility (mole fraction)
The answer should be written as a number, with no unit following it.

## Task Look at this compound and give its reported solubility (mole fraction). C1=Cc2ccccc2Nc2ccccc21
## Result 0.0102

---

- Assay Context: in ethyl acetate, 288.15 K
Reported Property: solubility (mole fraction)
The answer should be written as a number, with no unit following it.

## Task Look at this molecule and give its reported solubility (mole fraction). C1=Cc2ccccc2Nc2ccccc21
## Result 0.0133

---

- Assay Context: in DMAc, 293.15 K
Reported Property: solubility (mole fraction)
The answer should be written as a number, with no unit following it.

## Task Look at this compound and give its reported solubility (mole fraction). C1=Cc2ccccc2Nc2ccccc21
## Result 0.139

---

- Assay Context: in n-propyl acetate, 278.15 K
Reported Property: solubility (mole fraction)
The answer should be written as a number, with no unit following it.

## Task Look at this compound and give its reported solubility (mole fraction). C1=Cc2ccccc2Nc2ccccc21
## Result 0.0126

---

- Assay Context: in acetone, 293.15 K
Reported Property: solubility (mole fraction)
The answer should be written as a number, with no unit following it.

## Task Look at this compound and give its reported solubility (mole fraction). C1=Cc2ccccc2Nc2ccccc21
## Result 0.0219

---

- Assay Context: in n-butyl acetate, 318.15 K
Reported Property: solubility (mole fraction)
The answer should be written as a number, with no unit following it.

## Task Look at this compound and give its reported solubility (mole fraction). C1=Cc2ccccc2Nc2ccccc21
## Result 0.0321

---

- Assay Context: in 1,4-dioxane, 308.15 K
Reported Property: solubility (mole fraction)
The answer should be written as a number, with no unit following it.

## Task Look at this compound and give its reported solubility (mole fraction). C1=Cc2ccccc2Nc2ccccc21
## Result 0.0481

---

- Assay Context: in isobutyl acetate, 323.15 K
Reported Property: solubility (mole fraction)
The answer should be written as a number, with no unit following it.

## Task Look at this compound and give its reported solubility (mole fraction). C1=Cc2ccccc2Nc2ccccc21
## Result 0.0285

---

- Assay Context: in n-butyl acetate, 278.15 K
Reported Property: solubility (mole fraction)

## Task Look at this compound and give its reported solubility (mole fraction). C1=Cc2ccccc2Nc2ccccc21
## Result 0.0133

---

- Assay Context: in isobutyl acetate, 303.15 K
Reported Property: solubility (mole fraction)
The answer should be written as a number, with no unit following it.

## Task Look at this compound and give its reported solubility (mole fraction). C1=Cc2ccccc2Nc2ccccc21
## Result 0.0184

---

- Assay Context: in NMP, 278.15 K
Reported Property: solubility (mole fraction)
The answer should be written as a number, with no unit following it.

## Task Look at this molecule and give its reported solubility (mole fraction). C1=Cc2ccccc2Nc2ccccc21
## Result 0.219

---

- Assay Context: in n-butyl acetate, 288.15 K
Reported Property: solubility (mole fraction)
The answer should be written as a number, with no unit following it.

## Task Look at this compound and give its reported solubility (mole fraction). C1=Cc2ccccc2Nc2ccccc21
## Result 0.0171

---

- Assay Context: in methyl acetate, 298.15 K
Reported Property: solubility (mole fraction)
The answer should be written as a number, with no unit following it.

## Task Look at this compound and give its reported solubility (mole fraction). C1=Cc2ccccc2Nc2ccccc21
## Result 0.0132

---

- Assay Context: in acetonitrile, 318.15 K
Reported Property: solubility (mole fraction)
The answer should be written as a number, with no unit following it.

## Task Look at this molecule and give its reported solubility (mole fraction). C1=Cc2ccccc2Nc2ccccc21
## Result 0.00933
